TARGET_ENTITY: UniProtKB P21453
TEST_PROTOCOL: Inhibition of cAMP production (HTRF cAMP HiRange), S1P1 CHO-K1 cells
Type: cell-based
CONDITIONS: inhibition of cAMP production, S1P1; read-out: hS1P1 CAMP pEC50 (converted)
Sequence (P21453 whole entry): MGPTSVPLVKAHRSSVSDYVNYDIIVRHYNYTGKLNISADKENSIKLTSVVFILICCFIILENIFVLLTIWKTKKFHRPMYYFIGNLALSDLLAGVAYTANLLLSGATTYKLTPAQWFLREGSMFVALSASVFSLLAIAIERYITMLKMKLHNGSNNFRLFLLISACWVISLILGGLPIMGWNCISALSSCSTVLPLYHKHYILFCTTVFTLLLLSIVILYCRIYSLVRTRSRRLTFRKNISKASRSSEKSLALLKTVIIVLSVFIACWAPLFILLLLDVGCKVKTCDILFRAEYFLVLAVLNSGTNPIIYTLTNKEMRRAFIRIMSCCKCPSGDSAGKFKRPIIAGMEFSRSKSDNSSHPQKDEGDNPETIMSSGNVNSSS
Provide the recorded EC50 for the entries that follow.

Provide measured EC50 on UniProtKB P21453 for COc1cccc(-c2nc(-c3ccc4c(ccn4C(C)C)c3)no2)c1 [Compound 392] please.
> 316 nM

Provide measured EC50 on UniProtKB P21453 for N#Cc1cc(-c2nc(-c3ccc4c(c3)NC(=O)C4)no2)ccc1NCC1CC1 [Compound 497] please.
< 316 nM

Provide measured EC50 on UniProtKB P21453 for CC(C)n1ccc2nc(-c3nc(-c4ccccc4Br)cs3)ccc21 [Compound 412] please.
> 316 nM

Provide measured EC50 on UniProtKB P21453 for CCC1(CC)CC(=O)c2cc(-c3nc(-c4ccc5nonc5c4)no3)ccc2O1 [Compound 500] please.
> 316 nM

Provide measured EC50 on UniProtKB P21453 for CCCC1CC(=O)c2ccc(-c3nc(-c4cccnc4)no3)cc2O1 (centres unmarked) [Compound 630] please.
> 316 nM

---

TARGET_ENTITY: human sphingosine-1-phosphate receptor 1 (S1P1) (Homo sapiens)
TEST_PROTOCOL: β-Arrestin2 recruitment assay (PathHunter), S1P1 CHO-K1 cells
Type: cell-based
CONDITIONS: CHO-K1, β-arrestin2 recruitment; efficacy normalized to maximum efficacy of fingolimod; read-out: hS1P1 B-arrestin2 SPAN
Procedure: Stable clonal Chinese hamster ovary K1 (CHO-K1) cells co-expressing EA-β-arrestin2 and the human sphingosine-1-phosphate receptor 1 (NM_001400, S1P1) with a C-terminal Prolink™ tag were purchased from DiscoverX corporation (Cat #: 93-0207C2). […] Agonist-promoted β-arrestin2 recruitment to the sphingosine-1-phosphate 1 receptor was determined using the β-arrestin PathHunter® Detection kit (DiscoverX Corporation, Cat #: 93-0001). […]
Sequence (P21453 whole entry): as above
Sequence (P32121 whole entry partner): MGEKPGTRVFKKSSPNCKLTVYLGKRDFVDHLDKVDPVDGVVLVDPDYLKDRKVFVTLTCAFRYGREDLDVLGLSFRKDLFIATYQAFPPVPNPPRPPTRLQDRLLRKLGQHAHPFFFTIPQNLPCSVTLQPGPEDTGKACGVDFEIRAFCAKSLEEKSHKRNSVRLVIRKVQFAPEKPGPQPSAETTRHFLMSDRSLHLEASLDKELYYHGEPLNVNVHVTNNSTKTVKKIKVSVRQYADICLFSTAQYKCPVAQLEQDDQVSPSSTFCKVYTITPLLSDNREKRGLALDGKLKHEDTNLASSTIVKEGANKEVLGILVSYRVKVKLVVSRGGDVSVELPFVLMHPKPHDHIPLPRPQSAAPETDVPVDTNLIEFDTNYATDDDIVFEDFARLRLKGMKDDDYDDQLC
ENDPOINT_LABEL: Emax

Report measured Emax; entry is CCC1(CC)CC(=O)c2cc(-c3nc(-c4ccncc4F)no3)ccc2O1
> 75%

Report measured Emax; entry is CCCn1nnc2cc(-c3nc(-c4ccc(F)cc4)no3)ccc21
< 75%

Report measured Emax; entry is CCC1(CC)CC(=O)c2cc(-c3nc(-c4ccc5c(c4)nnn5C(C)C)ns3)ccc2O1
< 75%

Report measured Emax; entry is CCC1(CC)CC(=O)c2cc(-c3nc(-c4ccnc(O)c4)no3)ccc2O1
> 75%

Report measured Emax; entry is CC(C)n1nnc2cc(-c3nc(-c4ccccc4Cl)no3)ccc21
> 75%

Report measured Emax; entry is Cc1cccc(-c2noc(-c3ccc4c(c3)nnn4C3CCCCC3)n2)c1
< 75%

Report measured Emax; entry is O=C1CC2(CCC(F)(F)CC2)Oc2ccc(-c3nc(-c4ccncc4)no3)cc21
< 75%

Report measured Emax; entry is COc1ccccc1-c1nnc(-c2ccc3c(c2)nnn3C(C)C)s1
< 75%

Report measured Emax; entry is CC(C)n1nnc2cc(-c3nc(-c4cccc5c4OCO5)no3)ccc21
< 75%

Report measured Emax; entry is COc1ccccc1-c1nnc(-c2ccc3c(c2)nnn3C(C)C)o1
> 75%

Report measured Emax; entry is COc1ccccc1-c1cnc(-c2ccc3c(c2)nnn3C(C)C)s1
< 75%

Report measured Emax; entry is COc1ccccc1-c1nc(-c2ccc3c(c2)nnn3C(C)C)no1
> 75%

Report measured Emax; entry is COC(=O)CCn1nnc2cc(-c3noc(-c4ccccc4Br)n3)ccc21
> 75%

Report measured Emax; entry is CC(C)n1nnc2cc(-c3ncc(-c4ccc(F)cc4)s3)ccc21
< 75%

Report measured Emax; entry is CCC1(CC)CC(=O)c2cc(-c3nsc(-c4ccccc4OC)n3)ccc2O1
< 75%

Report measured Emax; entry is CCC1(CC)CC(=O)c2cc(-c3nc(-c4ccc5c(c4)nnn5C(C)C)no3)ccc2O1
< 75%

Report measured Emax; entry is CC(C)c1ccc(-c2nc(-c3ccc4c(c3)nnn4C(C)C)no2)cn1
< 75%

Report measured Emax; entry is Cc1ccccc1-c1nc(-c2ccc3c(c2)nnn3C2CCCC2)no1
> 75%

Report measured Emax; entry is CC(C)Oc1ccccc1-c1noc(-c2ccc3c(c2)nnn3C(C)C)n1
> 75%

Report measured Emax; entry is COc1cccc(-c2nc(-c3ccc4[nH]ccc4c3)ns2)c1
< 75%

Report measured Emax; entry is Cc1cccc(-c2nc(-c3ccc4c(c3)nnn4C3CCCC3)no2)c1
< 75%

Report measured Emax; entry is COc1ccccc1-c1nnc(-c2ccc3c(c2)c(=O)on3C)o1
< 75%

Report measured Emax; entry is Cc1cnc(-c2noc(-c3ccc4c(c3)nnn4C(C)C)n2)cn1
< 75%

Report measured Emax; entry is COc1cccc(-c2noc(-c3ccc4c(c3)nnn4C(C)C)n2)c1
< 75%

Report measured Emax; entry is CC(C)n1nnc2cc(-c3nc(-c4cccnc4)no3)ccc21
> 75%

Report measured Emax; entry is CC(C)n1nnc2cc(-c3noc(-c4ccccc4C(F)(F)F)n3)ccc21
> 75%

Report measured Emax; entry is Cc1cc(-c2nc(-c3ccc4c(c3)nnn4C(C)C)no2)cnc1C
> 75%

Report measured Emax; entry is CCC1(CC)CC(=O)c2cc(-c3nc(-c4cccc(Cl)c4)no3)ccc2O1
< 75%

Report measured Emax; entry is COc1ccccc1-c1noc(-c2ccc3[nH]ccc3c2)n1
< 75%

Report measured Emax; entry is COc1cccc(-c2nc(-c3ccc4c(ccn4C(C)C)c3)ns2)c1
< 75%

Report measured Emax; entry is COc1ccccc1-c1noc(-c2ccc3[nH]ncc3c2)n1
< 75%

Report measured Emax; entry is O=C1CCOc2ccc(-c3nc(-c4ccncc4)no3)cc21
< 75%

Report measured Emax; entry is Cc1ccncc1-c1noc(-c2ccc3nnn(CC(C)C)c3c2)n1
> 75%

Report measured Emax; entry is CC(C)n1nnc2cc(-c3noc(-c4ccccc4Br)n3)ccc21
> 75%

Report measured Emax; entry is CC(C)n1nnc2cc(-c3ncc(-c4ccccc4Br)s3)ccc21
< 75%

Report measured Emax; entry is Cc1cnc(-c2nc(-c3ccc4c(c3)nnn4C(C)C)no2)cn1
< 75%

Report measured Emax; entry is Cc1ccc(-c2noc(-c3ccc4c(c3)nnn4C3CCCC3)n2)s1
< 75%

---

TARGET_ENTITY: human sphingosine-1-phosphate receptor 1 (S1P1) (Homo sapiens, UniProt P21453)
TEST_PROTOCOL: Inhibition of cAMP production (HTRF cAMP HiRange), S1P1 CHO-K1 cells
Format: cell-based
CONDITIONS: CHO-K1; inhibition of cAMP production; efficacy normalized to maximum efficacy of fingolimod; read-out: hS1P1 CAMP SPAN
Provide the recorded Emax for the entries that follow.

Report measured Emax; entry is Brc1ccccc1-c1nc(-c2ccc3c(c2)nnn3Cc2ccncc2)no1
< 75%

Report measured Emax; entry is CC(C)n1nnc2cc(-c3noc(-c4cccc(COc5ccccc5)c4)n3)ccc21
< 75%

Report measured Emax; entry is CC(C)n1nnc2cc(-c3noc(C45CC6CC(CC(C6)C4)C5)n3)ccc21
< 75%

Report measured Emax; entry is CC(C)n1nnc2cc(-c3ncc(-c4ccc(F)cc4)s3)ccc21
< 75%

Report measured Emax; entry is CCC1(CC)CC(=O)c2cc(-c3nc(-c4ccnc(O)c4)no3)ccc2O1
> 75%

Report measured Emax; entry is CCC1(CC)CC(=O)c2cc(-c3nc(-c4ccncc4F)no3)ccc2O1
> 75%

Report measured Emax; entry is Cc1nc(-c2ccccc2)oc1-c1cnc2c(c1)CC(=O)N2
< 75%

Report measured Emax; entry is COc1cc(-c2noc(-c3ccc4c(c3)nnn4C3CC3)n2)ccn1
< 75%

Report measured Emax; entry is Cc1ccccc1-c1noc(-c2ccc3c(c2)CCC(=O)N3C)n1
< 75%
